Test system: anesthetized cat
Assay: Hypotensive and positive inotropic activity in the anesthetized cat
Assay type: in vivo
Details: 0.1 mg/kg i.v., arterial pressure, aorta abdominalis, average, second number after the slash
Use criterion met when the recorded Change in blood pressure (second value of the printed pair) is no lower than -40 mm Hg; use criterion not met when it is lower.

compound	tested-target	group-label
CC1CC(=O)NN=C1c1ccc2c(c1)nnn2C(C)C (centres unmarked) [C]	anesthetized cat	criterion met
COc1ccc(Cn2nnc3cc(C4=NNC(=O)CC4C)ccc32)cc1 (centres unmarked) [Compound E]	anesthetized cat	criterion not met
CC1CC(=O)NN=C1c1ccc2c(c1)nnn2C (centres unmarked) [G]	anesthetized cat	criterion met
COc1ccc(C(=O)n2nnc3cc(C4=NNC(=O)CC4C)ccc32)cc1 (centres unmarked) [A]	anesthetized cat	criterion met
CCn1nnc2cc(C3=NNC(=O)CC3C)ccc21 (centres unmarked) [D]	anesthetized cat	criterion met

###

Test system: anesthetized cat
Experiment: Hypotensive and positive inotropic activity in the anesthetized cat
Assay type: in vivo
Conditions: 0.1 mg/kg i.v., left ventricle pressure, dp/dtmax, average
Overview of reported Increase in dp/dt across a group of molecules:

molecule	tested-target	Increase in dp/dt
COc1ccc(Cn2nnc3cc(C4=NNC(=O)CC4C)ccc32)cc1 (centres unmarked)	anesthetized cat	+167%
COc1ccc(C(=O)n2nnc3cc(C4=NNC(=O)CC4C)ccc32)cc1 (centres unmarked)	anesthetized cat	+105%
CCn1nnc2cc(C3=NNC(=O)CC3C)ccc21 (centres unmarked)	anesthetized cat	+125%
CC1CC(=O)NN=C1c1ccc2c(c1)nnn2C(C)C (centres unmarked)	anesthetized cat	+116%
CC1CC(=O)NN=C1c1ccc2c(c1)nnn2C (centres unmarked)	anesthetized cat	+168%

###

System: anesthetized cat
Test: Hypotensive and positive inotropic activity in the anesthetized cat
Assay type: in vivo
Conditions: 0.1 mg/kg i.v., arterial pressure, aorta abdominalis, average, first number before the slash
Let's look at some compounds and their measured Change in blood pressure (first value of the printed pair).
readout-type: Change in blood pressure (first value of the printed pair) (mm Hg)

compound	obs-value
CC1CC(=O)NN=C1c1ccc2c(c1)nnn2C (centres unmarked)	-33
COc1ccc(Cn2nnc3cc(C4=NNC(=O)CC4C)ccc32)cc1 (centres unmarked)	-48
CCn1nnc2cc(C3=NNC(=O)CC3C)ccc21 (centres unmarked)	-30
CC1CC(=O)NN=C1c1ccc2c(c1)nnn2C(C)C (centres unmarked)	-27
COc1ccc(C(=O)n2nnc3cc(C4=NNC(=O)CC4C)ccc32)cc1 (centres unmarked)	-16
